- condition.context: 333.15 K; 101.33 kPa; Liquid; Vibrating tube method
experimental.readout: mass density (kg/m3)

>>> df
                                   compound  experimental_readout  meas_value
0  CCC[n+]1ccn(C)c1.O=P([O-])(O)O [1-methyl-3-propylimidazolium dihydrogen phosphate]          mass density      1170.8
1  CCCCC[n+]1ccn(C)c1.O=P([O-])(O)O [1-methyl-3-pentylimidazolium dihydrogen phosphate]          mass density     1119.93
2  CCCCCn1cc[n+](C)c1.O=C([O-])O [3-methyl-1-pentylimidazolium hydrogen carbonate]          mass density     1117.27
3  CCCCn1cc[n+](C)c1.O=P([O-])(O)O [1-butyl-3-methylimidazolium dihydrogen phosphate]          mass density     1152.67
4  CCCCn1cc[n+](C)c1.O=C([O-])O [1-butyl-3-methylimidazolium hydrogen carbonate]          mass density     1132.53
5  CCn1cc[n+](C)c1C.O=S(=O)([O-])O [1-ethyl-2,3-dimethylimidazolium hydrogen sulfate]          mass density     1228.52
6  CCCCn1cc[n+](C)c1C.O=S(=O)([O-])O [1-butyl-2,3-dimethylimidazolium hydrogen sulfate]          mass density     1187.57
7  CCCCCn1cc[n+](C)c1C.O=S(=O)([O-])O [2,3-dimethyl-1-pentylimidazolium hydrogen sulfate]          mass density     1168.33
8  CCCn1cc[n+](C)c1C.O=S(=O)([O-])O [2,3-dimethyl-1-propylimidazolium hydrogen sulfate]          mass density     1208.35

---

- condition.context: 328.15 K, Maximal bubble pressure
experimental.readout: surface tension liquid-gas (mN/m)

Solved cases (7 shown):
>>> df
                                   molecule  meas_value
0  CCCCCn1cc[n+](C)c1C.O=S(=O)([O-])O [2,3-dimethyl-1-pentylimidazolium hydrogen sulfate]        40.4
1  CCn1cc[n+](C)c1C.O=S(=O)([O-])O [1-ethyl-2,3-dimethylimidazolium hydrogen sulfate]        48.1
2  CCCCC[n+]1ccn(C)c1.O=P([O-])(O)O [1-methyl-3-pentylimidazolium dihydrogen phosphate]        39.3
3  CCCCn1cc[n+](C)c1.O=P([O-])(O)O [1-butyl-3-methylimidazolium dihydrogen phosphate]        41.7
4  CCCn1cc[n+](C)c1C.O=S(=O)([O-])O [2,3-dimethyl-1-propylimidazolium hydrogen sulfate]        45.5
5  CCCCn1cc[n+](C)c1C.O=S(=O)([O-])O [1-butyl-2,3-dimethylimidazolium hydrogen sulfate]        43.1
6  CCCCn1cc[n+](C)c1.O=C([O-])O [1-butyl-3-methylimidazolium hydrogen carbonate]        31.2

P = CCC[n+]1ccn(C)c1.O=P([O-])(O)O [1-methyl-3-propylimidazolium dihydrogen phosphate]
Q = CCCCCn1cc[n+](C)c1.O=C([O-])O [3-methyl-1-pentylimidazolium hydrogen carbonate]
INPUT: Task for the reader: decide whether P or Q has the larger surface tension liquid-gas. When you have decided, please share the label of that item.
OUTPUT: P
(P: 44 mN/m, Q: 28 mN/m)

---

- condition.context: 323.15 K; 101.33 kPa; Liquid; Vibrating tube method
experimental.readout: mass density (kg/m3)

                                   compound    uom  meas_value
0  CCCCn1cc[n+](C)c1.O=P([O-])(O)O [1-butyl-3-methylimidazolium dihydrogen phosphate]  kg/m3     1159.53
1  CCCCn1cc[n+](C)c1C.O=S(=O)([O-])O [1-butyl-2,3-dimethylimidazolium hydrogen sulfate]  kg/m3     1194.03
2  CCCCCn1cc[n+](C)c1C.O=S(=O)([O-])O [2,3-dimethyl-1-pentylimidazolium hydrogen sulfate]  kg/m3     1174.61
3  CCCCCn1cc[n+](C)c1.O=C([O-])O [3-methyl-1-pentylimidazolium hydrogen carbonate]  kg/m3     1124.28
4  CCCCn1cc[n+](C)c1.O=C([O-])O [1-butyl-3-methylimidazolium hydrogen carbonate]  kg/m3     1139.45
5  CCC[n+]1ccn(C)c1.O=P([O-])(O)O [1-methyl-3-propylimidazolium dihydrogen phosphate]  kg/m3     1177.89
6  CCCn1cc[n+](C)c1C.O=S(=O)([O-])O [2,3-dimethyl-1-propylimidazolium hydrogen sulfate]  kg/m3     1215.29
7  CCn1cc[n+](C)c1C.O=S(=O)([O-])O [1-ethyl-2,3-dimethylimidazolium hydrogen sulfate]  kg/m3      1235.8
8  CCCCC[n+]1ccn(C)c1.O=P([O-])(O)O [1-methyl-3-pentylimidazolium dihydrogen phosphate]  kg/m3     1126.27

---

- condition.context: 303.15 K; 101.33 kPa; Liquid; Alternating current cell with electrodes
experimental.readout: electrical conductivity (S/m)

Solved cases (7 shown):
                                   compound  meas_value
0  CCCCn1cc[n+](C)c1.O=P([O-])(O)O [1-butyl-3-methylimidazolium dihydrogen phosphate]       0.483
1  CCCCC[n+]1ccn(C)c1.O=P([O-])(O)O [1-methyl-3-pentylimidazolium dihydrogen phosphate]        0.29
2  CCCCn1cc[n+](C)c1.O=C([O-])O [1-butyl-3-methylimidazolium hydrogen carbonate]       0.439
3  CCC[n+]1ccn(C)c1.O=P([O-])(O)O [1-methyl-3-propylimidazolium dihydrogen phosphate]       0.693
4  CCn1cc[n+](C)c1C.O=S(=O)([O-])O [1-ethyl-2,3-dimethylimidazolium hydrogen sulfate]       0.193
5  CCCCCn1cc[n+](C)c1.O=C([O-])O [3-methyl-1-pentylimidazolium hydrogen carbonate]       0.305
6  CCCCn1cc[n+](C)c1C.O=S(=O)([O-])O [1-butyl-2,3-dimethylimidazolium hydrogen sulfate]       0.135

I = CCCn1cc[n+](C)c1C.O=S(=O)([O-])O [2,3-dimethyl-1-propylimidazolium hydrogen sulfate]
II = CCCCCn1cc[n+](C)c1C.O=S(=O)([O-])O [2,3-dimethyl-1-pentylimidazolium hydrogen sulfate]
INPUT: Of I and II , which shows the smaller electrical conductivity value? When you have decided, please share the label of that item.
OUTPUT: II

---

- condition.context: 313.15 K; 101.33 kPa; Liquid; Vibrating tube method
experimental.readout: mass density (kg/m3)

>>> df
                                   compound  experimental_readout  meas_value
0  CCCCCn1cc[n+](C)c1.O=C([O-])O [3-methyl-1-pentylimidazolium hydrogen carbonate]          mass density     1131.33
1  CCC[n+]1ccn(C)c1.O=P([O-])(O)O [1-methyl-3-propylimidazolium dihydrogen phosphate]          mass density     1184.95
2  CCn1cc[n+](C)c1C.O=S(=O)([O-])O [1-ethyl-2,3-dimethylimidazolium hydrogen sulfate]          mass density      1243.3
3  CCCCC[n+]1ccn(C)c1.O=P([O-])(O)O [1-methyl-3-pentylimidazolium dihydrogen phosphate]          mass density     1132.55
4  CCCCCn1cc[n+](C)c1C.O=S(=O)([O-])O [2,3-dimethyl-1-pentylimidazolium hydrogen sulfate]          mass density     1180.69
5  CCCCn1cc[n+](C)c1C.O=S(=O)([O-])O [1-butyl-2,3-dimethylimidazolium hydrogen sulfate]          mass density     1200.63
6  CCCCn1cc[n+](C)c1.O=C([O-])O [1-butyl-3-methylimidazolium hydrogen carbonate]          mass density     1146.51
7  CCCCn1cc[n+](C)c1.O=P([O-])(O)O [1-butyl-3-methylimidazolium dihydrogen phosphate]          mass density      1166.3
8  CCCn1cc[n+](C)c1C.O=S(=O)([O-])O [2,3-dimethyl-1-propylimidazolium hydrogen sulfate]          mass density     1222.13

---

- condition.context: 288.15 K; 101.33 kPa; Liquid; Vibrating tube method
experimental.readout: mass density (kg/m3)

>>> print(df.to_string())
                                   molecule  meas_value
0  CCCCn1cc[n+](C)c1.O=C([O-])O [1-butyl-3-methylimidazolium hydrogen carbonate]      1164.1
1  CCCCCn1cc[n+](C)c1.O=C([O-])O [3-methyl-1-pentylimidazolium hydrogen carbonate]     1148.91
2  CCCCn1cc[n+](C)c1.O=P([O-])(O)O [1-butyl-3-methylimidazolium dihydrogen phosphate]     1183.24
3  CCCCn1cc[n+](C)c1C.O=S(=O)([O-])O [1-butyl-2,3-dimethylimidazolium hydrogen sulfate]     1217.09
4  CCCCC[n+]1ccn(C)c1.O=P([O-])(O)O [1-methyl-3-pentylimidazolium dihydrogen phosphate]     1148.62
